Every entry's value here was drawn from PubChem BioAssay (NCI).

Test system: ACHN renal
Assay Method Text: NCI tumour cell line growth inhibition, 48 h
Reported Endpoint: TGI

// solved cases for TGI follow
Compound: Cc1cc2cc3cc(C)c(N(C)C)cc3nc2cc1N(C)C
TGI: > 100 µM
//
Compound: CCn1cc(/C=C/C(C)c2cn(CC)c(=O)[nH]c2=O)c(=O)[nH]c1=O (stereo not given)
TGI: > 100 µM
//
Compound: N#Cc1c(-c2ccc([N+](=O)[O-])cc2)cc(-c2ccc(Nc3ccnc4cc(C(F)(F)F)ccc34)cc2)nc1N
TGI: > 68.8 µM
//
Compound: CCOC(=O)CCC(NC(=O)c1ccc(Oc2nc3ccc(C(F)(F)F)cc3nc2-c2ccccc2)cc1)C(=O)OCC (stereo not given)
TGI: > 100 µM

Could you now consider this next compound?
Input: Short answer please: TGI, ACHN renal, entry COC1=CC(O)(CC(N)=O)c2ccccc2C1=O (stereo not given)
Output: > 100 µM
